These data points were gathered from patent US6555576B1.

In this section we review reported High/Low Ratio (IC50 high affinity / IC50 low affinity) values for a set of compounds.
Test system: low affinity form of PDE 4 (LPDE 4)
Test: PDE 4 catalytic activity assay (low affinity form)
Type: biochemical, human
Settings: HPDE 4 IC50 divided by LPDE 4 IC50
// return a plain number; no unit text

Here is how some compounds turned out for High/Low Ratio (IC50 high affinity / IC50 low affinity).
OCCN(CCO)c1nc(N2CCCCC2)c2nc(N(CCO)CCO)nc(N3CCCCC3)c2n1 [dipyridamole, reference compound]; 6.25
CCOC(=O)C=C1C[C@H](c2ccc(OC)c(OC3CCCC3)c2)CN1; 2.143

May I ask what High/Low Ratio (IC50 high affinity / IC50 low affinity) has been recorded for NC(=O)C(=O)NCCc1ccc(OC(F)F)c(OC(F)F)c1 ?
0.25

May I ask what High/Low Ratio (IC50 high affinity / IC50 low affinity) has been recorded for COc1ccc(CCNC(=O)C(N)=O)cc1OC1CCCC1 ?
0.013
